ASSAY_EXPLANATION: soluble fraction after stress (log2 fold change); higher = more stays soluble; pooled small domains, quantitative proteomics
ASSAY_CONTEXT: stress: 50 degC
The entries below are paired with their reported soluble fraction (log2).

{"CHAIN": "HMLPDHAPITMRQLAMLHVAKNKLDLTDEDYRSLLLLYGGVESSKQLNQEGLRRVLDRFKELGFEP", "soluble fraction (log2)": -0.0947}
{"CHAIN": "HMAEPEALLAMAQRILGEEVAQSLFQGAAREQGKEGYLPDPTPAFLDALEARLSGSVGAATAHAMISQLVG", "soluble fraction (log2)": -0.0483}
{"CHAIN": "HMGTEITEQRAKEIALENAKVAESDVTAMRVKKEMDDGVWRYDVEFYVQNKEYDYEINAMDGTILSVDYD", "soluble fraction (log2)": -0.04}
{"CHAIN": "HMTEVPSLSSLKIGDLIFYRNNKGAIAHSAIITSFYNGRPFISQHTFNALNITYVKDWASKMHFIKIW", "soluble fraction (log2)": -0.0353}
{"CHAIN": "HMGNEVMYRQDLSEQELLSFIKKYTGQDEVTHIVVGAPKQRDNTPSPVETKITPFVVQLKAQFPDVNVV", "soluble fraction (log2)": 0.115}
{"CHAIN": "HMIQVNKTQALIIEEMRDNPNITLLELQKTLSLGRTAIQNNVSSLRKRQIIKRVGSNKNGYWEVTDK", "soluble fraction (log2)": -1.95}
{"CHAIN": "HMNTPHLTPREREVLKGIVDGLINKEIAARMGVSVATVITHRNNLTEKLGTRSVSALTIFAVMHGIVR", "soluble fraction (log2)": -2.49}
{"CHAIN": "HMRNTETMKEIQAFVEDYFFEYHQSPSMQKVADAIGTSKSTAYYYVMEMARNGMLHYDGKTIETPHTQKS", "soluble fraction (log2)": -1.09}

---

The entries below are paired with their reported soluble fraction (log2).
ASSAY_EXPLANATION: soluble fraction after stress (log2 fold change); higher = more stays soluble; pooled small domains, quantitative proteomics
ASSAY_CONTEXT: stress: 50 degC

{"CHAIN": "HMEAGTVTVTHAAVYIRSGPGVSYPIAGKAAKNDTYTVLQKDGDWFQIRLPQGNTGWIAGWLVETGT", "soluble fraction (log2)": -0.635}
{"CHAIN": "HMFIEMDEPEKILHRILNEANGKLELDKIGYRAEWPIGKVLTVLMSLELKGVVQSHPGKVYSL", "soluble fraction (log2)": -0.154}
{"CHAIN": "HMNDPIESLTPREREVLTLMAEGRTNAAIAAQLVVTEGAVEKHTQHIFAKLGLLPDSAVHRRVKAVLALLS", "soluble fraction (log2)": -1.75}
{"CHAIN": "HMGDLVKGKVVGYDPDNVIVDIGAKTNALVPNREAVVEAGDDIKETLKKGNEYEFLIIRDEDEEGEFL", "soluble fraction (log2)": 0.29}
{"CHAIN": "HMDVSPVRLIREARGLSQVEVAKAAGLSRAAYQNIEVGKTVPRASTMVNIARALGVSMDDLLAPV", "soluble fraction (log2)": -0.251}
{"CHAIN": "HMHVGVWIMNEKGEILLEQRASNKKVDPNKWARIGGHVDAGEKPIQAIQREILEEIGVKIPLENFIVLET", "soluble fraction (log2)": -0.335}
{"CHAIN": "HMGSWEDALKNWVDSALASGQKGILEQAVPKFERIMIETALTHTAGRRRDASLLLGWGRNTLTRKIKELGI", "soluble fraction (log2)": -0.214}
{"CHAIN": "HMLANLNKELQNDAALLKQKAQGNSNLLAKIQDVEQQMKQVNTSSASDEAKAKELQTLQRKLTAYKKALA", "soluble fraction (log2)": 0.0101}
{"CHAIN": "HMSAMSPTEVGERLRLAREAVRMTQKQAADAISVARTTLVAIEQGQRRVRIDELQQLAKTYGVSVNAILR", "soluble fraction (log2)": -0.757}
{"CHAIN": "HMQKNKSVLFKDIVIAFNQNPKKLFNYKQLAADLDIHSEAERMLISQLLNDLKDQNFLEEVERGKYKLKL", "soluble fraction (log2)": 0.0237}
{"CHAIN": "HMETKQYIVEAQDEGTRLDVYLTKELGQSRSYVQSLVKEGHVQVNGKTGKSNLKLSSSSEILVTIPEVQ", "soluble fraction (log2)": -0.0648}
{"CHAIN": "HMDDGNHTEYIVLEKAKFYDEAGEYEEGRDLVLSFDKYQDNWKLVYTLGVFNKKLNNLEEARKYYKQALE", "soluble fraction (log2)": -0.0519}
{"CHAIN": "HMPALPGNELLRNLMLEHGLKQVDLAEIGSQGVVSEILSGKRRINRRHADLLARRFSLPAELFSR", "soluble fraction (log2)": -0.133}
{"CHAIN": "HMQRQGTVATQQTPLNIRSQPSLSAQVIGQAPKGATVAILGESGDWYQIRYQNITGYSSKQYI", "soluble fraction (log2)": 0.145}
{"CHAIN": "HMTKTKFLSKDMILSAMSRTKSNRAAARYLSVSFVHYKKYAREYKDETSGVSLWEKHKNQSGTGIPK", "soluble fraction (log2)": -1.92}
{"CHAIN": "HMLTEREQDTLNFIRQYIDEQGRSPLVSEIAKGLGIKSQGTTHRYIQALVDAGLLERHVGRTRGLHLT", "soluble fraction (log2)": 0.0721}
{"CHAIN": "HMGKGVDKIMKMADDYSYGKIAGKTVDVMTAKLFQAAYNKAPQKAKDKVDKMNEKQLYIFMMNLWKRF", "soluble fraction (log2)": -0.777}
